Biological target: human RET on cells (MCF7/SRE-Luc; HEK293/hGFRα3/hRET/SRE-Luc; HEK293/hGFRα1/hRET/SRE-Luc) (human), P07949
Experiment: cell-based or functional assay
# reported 293/hGFRα3/hRET SRE-luc % Blocking; entries follow
Answer with a number only, understood to be in %.

Example cases with answers are listed next.
H4H8046P (antibody, human IgG4, V domains shown) VH: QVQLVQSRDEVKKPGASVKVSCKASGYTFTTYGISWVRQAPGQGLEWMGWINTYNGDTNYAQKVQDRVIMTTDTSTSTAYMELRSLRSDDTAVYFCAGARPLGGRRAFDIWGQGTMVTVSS VL: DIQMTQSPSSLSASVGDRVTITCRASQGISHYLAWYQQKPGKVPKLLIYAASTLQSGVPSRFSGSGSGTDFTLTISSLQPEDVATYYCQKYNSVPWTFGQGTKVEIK
91
H4H8084P (antibody, human IgG4, V domains shown) VH: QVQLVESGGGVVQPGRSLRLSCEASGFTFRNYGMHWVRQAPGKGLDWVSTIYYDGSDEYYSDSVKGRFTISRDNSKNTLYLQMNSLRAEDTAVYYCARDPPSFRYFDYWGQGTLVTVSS VL: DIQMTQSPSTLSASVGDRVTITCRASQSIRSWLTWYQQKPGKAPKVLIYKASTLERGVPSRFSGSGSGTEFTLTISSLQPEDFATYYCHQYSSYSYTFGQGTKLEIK
94
H4H8080P (antibody, human IgG4, V domains shown) VH: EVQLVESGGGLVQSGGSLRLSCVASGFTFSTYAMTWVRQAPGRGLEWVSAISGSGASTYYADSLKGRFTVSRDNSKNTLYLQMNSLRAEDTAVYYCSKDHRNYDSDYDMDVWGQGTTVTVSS VL: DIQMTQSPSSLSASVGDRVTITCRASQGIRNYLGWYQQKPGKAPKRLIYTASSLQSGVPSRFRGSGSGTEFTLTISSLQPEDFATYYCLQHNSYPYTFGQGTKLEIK
57
H4H8067P (antibody, human IgG4, V domains shown) VH: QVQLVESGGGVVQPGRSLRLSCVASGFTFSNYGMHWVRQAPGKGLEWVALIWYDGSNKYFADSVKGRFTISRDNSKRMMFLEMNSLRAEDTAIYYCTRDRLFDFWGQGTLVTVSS VL: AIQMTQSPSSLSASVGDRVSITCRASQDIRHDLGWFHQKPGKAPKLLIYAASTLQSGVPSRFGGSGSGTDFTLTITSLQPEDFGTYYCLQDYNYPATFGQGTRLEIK
99
H2M7086N (antibody, mouse IgG2, V domains shown) VH: QVQLVESGGGVVQPGRSLRLSCVVSGFTFSNYGMHWVRQGPGRGLEWLALIWYDGSDKYYAESVRGRFTISRDNSKNTVYLQMNSLRAEDTAMYYCTRDRIFDYWGQGTLVTVSS VL: AIQMTQSPSSLSASVGDRVTITCRASQDIRNDLGWYQHNPGKAPNLLIYAASTLQIGVPSRFRGSGSGTDFTLTISSLQPEDFATYYCLQDFDYPLSFGGGTKVEIR
98
H4H8085P (antibody, human IgG4, V domains shown) VH: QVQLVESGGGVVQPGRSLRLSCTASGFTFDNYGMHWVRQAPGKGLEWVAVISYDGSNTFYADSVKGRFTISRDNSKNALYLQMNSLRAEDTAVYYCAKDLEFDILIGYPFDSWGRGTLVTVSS VL: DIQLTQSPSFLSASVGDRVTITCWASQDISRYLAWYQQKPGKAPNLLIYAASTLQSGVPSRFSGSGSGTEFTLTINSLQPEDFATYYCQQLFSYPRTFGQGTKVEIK
72
H4H8066P (antibody, human IgG4, V domains shown) VH: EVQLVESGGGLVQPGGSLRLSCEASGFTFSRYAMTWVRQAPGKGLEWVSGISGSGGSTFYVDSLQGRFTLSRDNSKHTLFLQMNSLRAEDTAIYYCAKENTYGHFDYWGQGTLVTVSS VL: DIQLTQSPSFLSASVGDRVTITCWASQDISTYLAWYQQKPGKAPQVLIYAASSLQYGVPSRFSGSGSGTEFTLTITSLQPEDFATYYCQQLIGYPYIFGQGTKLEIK
93

Here is another binder to look at.
For this binder ( H4H8045P (antibody, human IgG4, V domains shown) VH: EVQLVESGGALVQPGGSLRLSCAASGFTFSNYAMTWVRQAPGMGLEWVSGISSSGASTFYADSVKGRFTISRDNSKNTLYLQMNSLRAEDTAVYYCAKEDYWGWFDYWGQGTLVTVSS VL: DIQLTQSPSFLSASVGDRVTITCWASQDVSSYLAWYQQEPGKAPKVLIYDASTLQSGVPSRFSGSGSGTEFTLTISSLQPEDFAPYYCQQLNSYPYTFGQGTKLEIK ), measured 293/hGFRα3/hRET SRE-luc % Blocking is 96
